Attribute: koff
Target: T1, human [1-305]-mouse chimeric EL (human; mouse, UniProt Q9WVG5 306-500)
T1 construct: Heparin extract, captured or detected by an anti-C2-tag antibody; also called human-mouse chimeric EL
T1 sequence: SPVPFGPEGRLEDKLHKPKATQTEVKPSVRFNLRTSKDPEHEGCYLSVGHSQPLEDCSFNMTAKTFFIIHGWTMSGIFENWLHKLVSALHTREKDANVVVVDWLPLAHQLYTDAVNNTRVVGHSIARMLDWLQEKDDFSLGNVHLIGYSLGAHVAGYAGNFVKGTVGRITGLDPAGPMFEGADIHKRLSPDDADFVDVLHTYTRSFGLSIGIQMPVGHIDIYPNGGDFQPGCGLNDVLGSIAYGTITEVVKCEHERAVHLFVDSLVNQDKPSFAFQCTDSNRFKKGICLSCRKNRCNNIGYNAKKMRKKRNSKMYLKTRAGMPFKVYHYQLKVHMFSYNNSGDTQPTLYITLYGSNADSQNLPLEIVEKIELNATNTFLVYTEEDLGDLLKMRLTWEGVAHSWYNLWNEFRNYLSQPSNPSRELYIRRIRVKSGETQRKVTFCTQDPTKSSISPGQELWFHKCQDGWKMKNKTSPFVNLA
Test: Biacore; EL captured by anti-C2-tag Ab; bivalent fit
ATTRIBUTE MEASURED: koff (s⁻¹)

INSERT INTO results (binder, unit_abbreviation, endpoint_value) VALUES
  ('14A1 (antibody, mouse IgG1, V domains shown, mouse IgG1 from hybridoma) VH: QIQLVQSGPELKKPGETVKISCKASGYTFTNYGMNWVKQAPGKGLKWMGWINTYSGVPTYADDFKGRFAFSLETSASTAYLQINNFKNEDTATYFCARFSYYGRHYFDYWGQGTALTASS VL: DIVLTQSPASLAVSLGQRATISCKASQSVDYDGDSYMNWYQQKPGQPPKLLIYAASNLKSGIPARFSGSGSGTDFTLNIHPVEEEDAATYYCQQTTDDPPWTFGGGTKLEIK', 's⁻¹', 0.0001),
  ('14E1 (antibody, mouse IgG1, V domains shown, mouse IgG1 from hybridoma) VH: QVQLQQSGAELVKPGASVRLSCKASGYTFTKYTIHWVKQRSGQGLEWIGWFYPGSDSIKYNEKFKDKATLTADKSSRTVYMELSRLTSEDSAVYFCARHEEYTNSLAYWGQGTLVTVSA VL: DIQMTQTTSSLSASLGDRVTISCRASQDISNYLNWYQQQPDGTVKLLIYYTSRLHSGVPSRFSGSGSGTDYSLTISNLEQEDIATYFCQQGYTLPWTFGGGTNLEIK', 's⁻¹', 0.00023),
  ('7D4 (antibody, mouse IgG1, V domains shown, mouse IgG1 from hybridoma) VH: QIQLVQSGPELKKPGETVKISCKASGYTFTNYGMNWVKQAPGKDLKWMGWINTYSGVPTYADDFKGRFAFSLETSASTAYLQINNLKNEDTATYFCARFSYYGRHYFDYWGQGTTLTVSS VL: DIVLTQSPASLAVSLGQRATISCKASQSVDYDGDSYMNWYQQKPGQPPQLLIYAASNLGSGIPARFSGSGSGTDFTLNIHPVEEEDAATYYCHQSTDDPPWTFGGGTKLEIK', 's⁻¹', 0.00011),
  ('55A1 (antibody, mouse IgG2a, V domains shown, mouse IgG2a from hybridoma; also called 55A1 (mouse mAb)) VH: QIHLVQSGPELKKPGETVKISCKASGYTFTNYGMNWVKQAPGKGLKWMGWINTYSGVPTYAGDFKGRFAFSLETSASTAYLQINNLKNEDTATYFCARRGYYGRRYFDVWGTGTTVTVSS VL: DIVLTQSPASLAVSLGQRATISCKASQSVDYDVDSYMHWYQQKPGQPPKLLIYAASNLASGIPARFSGGGSGTDFTLNIHPVEEEDVATYYCQQTIEDPPTFGGGTKLEIK', 's⁻¹', 0.00014),
  ('53A11 (antibody, mouse IgG2a, V domains shown, mouse IgG2a from hybridoma; also called 53A11 (mouse mAb)) VH: EVQLQQSGPELLKPGASVKISCKASGYTFTDYTMHWVKQSHGKSLEWIGGINPYYGGTTYNEKFKDKATLTVDKSSSTAYMELRSLTSEDSAVYYCAKGDYYGGSYNYWGQGTTLTVSS VL: DIVLTQSLATLSVTPGDSVSLSCRASQDISNSLHWYQQKSHESPRLLIKYASQSISGIPSRFSGSGSGTDFTLSINSVETEDFGMYFCQQSNSWPYTFGGGTKLEIK', 's⁻¹', 0.00011),
  ('23H8 (antibody, mouse IgG2a, V domains shown, mouse IgG2a from hybridoma; also called 23H8 (mouse mAb)) VH: EVQLQQSGPELLKPGASVKISCKASGYTFTDNTIHWVKQSHGKSLEWIGHINPYYGGTNNNEKFKDKATLTVDKSSSTAYMELRSLTSEDSAIYYCARKGIYYSSPFDYWGQGTTLTVSS VL: DIQMTQTTSSLSASLGDRVTISCRASQDINNYLNWYQQKPDGTVKLLISYTSKLHSGVPSRFSGSGSGTDYSLTISNLEREDFATYFCQQGNTLPFTFGSGTNLEIK', 's⁻¹', 0.00011),
  ('13B3 (antibody, mouse IgG2a, V domains shown, mouse IgG2a from hybridoma; also called 13B3 (mouse mAb)) VH: EVQLQQSGPELLKPGASVKISCKASGYTFTEYTMHWVKQSHGKSLEWIGSINPYYGGTSYNEKFKDKATLTVDKSSNTAYMEFRSLTSEDCAVYYCARYGNYVGYFDYWGQGTTLTVSS VL: ENVLTQSPAIMSASLGEKVTMSCRASSSVHYMYWYQQKSDASPKLWIYYTSNLAPGVPDRFSGSGSGNSYSLTISSMEGEDAATYYCQQFTSSPYTFGGGTKLEIK', 's⁻¹', 0.00014),
  ('16B3 (antibody, mouse IgG2a, V domains shown, mouse IgG2a from hybridoma; also called 16B3 (mouse mAb)) VH: DVKLVESGGGLVQPGGSLKLSCTASGFTFSGYTMSWVRQTPEKRLELVAEISFARDRAFYPDTVKGRFTISRDNAKNTLYLQMSSLKSEDTAMYYCTRLGGRNHDYWYFDVWGTGTTVTVSS VL: DIVLTQSPTSLAVSPGQRATISCRASESVEYYGTSLMQWYQQKPGQRPQLLIYAASNVESGVPARFSGSGSGTDFSLNIHPVEEDDIAVYFCQQSWKVPFTFGSGTKLEIK', 's⁻¹', 0.00019),
  ('16E7 (antibody, mouse IgG1, V domains shown, mouse IgG1 from hybridoma) VH: EVKLVESGGGLVQPGGSLKLSCAASGFTFSSYTMSWVRQTPEKRLELVAEISFTRSRAFYPDTVKGRFTISRDNAKNTLYLQMSSLKSEDTAMYYCARLGGNNYDYWYFDVWGTGTTVTVSS VL: DIVLTQSPTSLAVSLGQRATISCRASESVEYYGTSLMQWYQQKPGQRPKLLIYAASNVESGVPARFSGSGSGTDFSLNIHPVEEDDIAMYFCQQSWKVPFTFGSGTKLEIK', 's⁻¹', 0.0001);
